Recorded pEC50 values for a group of compounds are listed next.
Biological target: FPR2 (Homo sapiens)
Construct: expressed in transfected cells; host or cells: HL-60 cells (FPR2-HL60)
Sequence (P25090 whole entry): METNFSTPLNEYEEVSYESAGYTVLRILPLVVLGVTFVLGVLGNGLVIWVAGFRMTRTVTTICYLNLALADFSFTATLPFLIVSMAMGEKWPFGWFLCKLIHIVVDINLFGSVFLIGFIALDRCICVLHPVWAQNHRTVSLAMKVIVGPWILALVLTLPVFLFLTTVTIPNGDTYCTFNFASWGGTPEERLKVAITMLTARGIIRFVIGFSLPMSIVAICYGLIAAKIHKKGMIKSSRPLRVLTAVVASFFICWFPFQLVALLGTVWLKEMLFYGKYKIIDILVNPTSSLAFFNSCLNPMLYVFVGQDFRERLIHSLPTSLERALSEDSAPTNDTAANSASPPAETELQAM
Experiment: Ca2+ mobilization in FPR2-transfected HL-60 cells (agonist activity)
Format: cell-based
Details: reported here for the first time (Suppl.)
pEC50: −log10 of the molar value.

1) Cc1cc(Cc2ccc(C(=O)Nc3ccc(Br)cc3)cc2)c(=O)n(CC(=O)Nc2ccc(Br)cc2)n1 [Compound 61] = < 4.30

Turning now to a further compound:
Query: Look up pEC50: Nc1cc(-c2ccncc2)cn(CC(=O)Nc2ccc(Br)cc2)c1=O [Compound 139]
Reply: < 4.30

====

Tested on: LPS-induced NF-κB activity in THP1-Blue cells
Experiment: Inhibition of LPS-induced NF-κB transcriptional activity, alkaline phosphatase reporter, THP1-Blue cells
Assay type: cell-based, human
Conditions: THP1-Blue cells, 250 ng/mL LPS, 24 h
measurement-type: Inhibition of LPS-induced NF-κB activity (in words)

1) Cc1cc(-c2ccccc2)nn(CC(=O)Nc2ccc(Br)cc2)c1=O [Compound 67] = active
2) COc1cccc(Cc2c(C)c(C)nn(CC(=O)Nc3ccc(Br)cc3)c2=O)c1 [Compound 69] = inhibited
3) COc1cccc(Cc2cc(-c3ccc(Cl)cc3)nn(CC(=O)Nc3ccc(F)cc3)c2=O)c1 [Compound 42] = active
4) COc1cccc(Nc2c(C(C)=O)c(C)nn(CC(=O)Nc3ccc(Br)cc3)c2=O)c1 [Compound 73] = inactive
5) COc1cccc(Cc2cc(-c3ccc(F)cc3)nn(CC(=O)Nc3ccc(F)cc3)c2=O)c1 [Compound 47] = active
6) COc1cccc(Cc2cc(C)nn(CC(=O)Nc3ccc(Br)cc3)c2=O)c1 [Compound 1] = inactive

Turning now to a further compound:
Query: Look up Inhibition of LPS-induced NF-κB activity (in words): COc1cccc(Cc2c(-c3ccccc3)c(C)nn(CC(=O)Nc3ccc(Br)cc3)c2=O)c1 [Compound 71]
Reply: inhibited

====

Recorded IC50 at 24 h values for a group of molecules are listed next.
Experiment: Cytotoxicity, CellTiter-Glo, THP1-Blue cells
Type: cell-based, human
Details: human, THP1-Blue cells; N.T. = no cytotoxicity at 50 µM; read-out: Cytotoxicity IC50 in THP1-Blue Cells

1. COc1cccc(Cc2cc(-c3ccc(F)cc3)nn(CC(=O)Nc3ccc(F)cc3)c2=O)c1 = > 50 µM
2. COc1cccc(Nc2c(C)c(-c3ccccc3)nn2CC(=O)Nc2ccc(Br)cc2)c1 = 22.4 µM
3. CC(C)c1c(NC(=O)Nc2ccc(Cl)cc2)c(=O)n(-c2ccccc2)n1C [Cmpd43, reference compound] = > 50 µM
4. CC[C@@](C)(C(=O)Nc1ccc(Br)cc1)n1nc(C)cc(Cc2cccc(OC)c2)c1=O = > 50 µM
5. O=C(Cn1c(-c2ccc(Cl)cc2)csc1=O)Nc1ccc(Br)cc1 = > 50 µM

Query: Look up IC50 at 24 h: COc1cccc(Cc2cc(-c3ccc(C)cc3)nn(CC(=O)Nc3ccc(F)cc3)c2=O)c1
Reply: > 50 µM

Query: Moving on to COc1cccc(Cc2cc(C)nn(CC(=O)Nc3ccc(F)cc3)c2=O)c1
Reply: > 50 µM

====

Tested on: LPS-induced NF-κB activity in THP1-Blue cells
Assay: Inhibition of LPS-induced NF-κB transcriptional activity, alkaline phosphatase reporter, THP1-Blue cells
Format: cell-based, human
Conditions: THP1-Blue cells, 250 ng/mL LPS, 24 h
measurement-type: Inhibition of LPS-induced NF-κB activity (in words)

1. COc1ccc(-c2cc(C)nn(CC(=O)Nc3ccc(Br)cc3)c2=O)cc1 [Compound 19] = inactive
2. COc1cccc(Cn2cc(CC(=O)Nc3ccc(Br)cc3)c3ccccc32)c1 [Compound 134] = inactive
3. COc1ccc2c(c1)c(CC(=O)Nc1ccc(Br)cc1)c(C)n2C(=O)c1ccc(Cl)cc1 [Compound 133] = inactive
